# test target: human P2Y1 receptor (Homo sapiens)
# Construct: expressed in transfected cells
# Sequence (P47900 whole entry): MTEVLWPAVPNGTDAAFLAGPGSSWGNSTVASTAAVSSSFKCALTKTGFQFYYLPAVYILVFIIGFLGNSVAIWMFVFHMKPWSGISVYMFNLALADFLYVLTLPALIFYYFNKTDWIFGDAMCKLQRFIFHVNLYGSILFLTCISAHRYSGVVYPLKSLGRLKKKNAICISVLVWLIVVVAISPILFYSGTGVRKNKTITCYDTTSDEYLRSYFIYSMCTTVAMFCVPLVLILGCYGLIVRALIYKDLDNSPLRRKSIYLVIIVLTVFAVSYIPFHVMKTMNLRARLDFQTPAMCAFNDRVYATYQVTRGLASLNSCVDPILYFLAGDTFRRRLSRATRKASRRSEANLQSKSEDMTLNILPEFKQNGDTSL
# assay name: P2Y1-mediated Ca2+ mobilization in NIH3T3-P2Y1 + Gq cells (FLIPR)
# Type: cell-based
# study conditions: 100 nM MRS2365; read-out: IC50, block of MRS2365 action at P2Y1 receptor
measurement type: IC50 (nM)
// units = nM; emit number, no label

For CNc1ncnc2c1ncn2[C@H]1C[C@H](OP(=O)(O)O)[C@@H](COP(=O)(O)O)O1 [MRS2179, reference compound] , what is its reported IC50?
660

----------
# test target: rhP2Y12 receptor (Homo sapiens, UniProt Q9H244)
# Construct: expressed in transfected cells
# Sequence (Q9H244 whole entry): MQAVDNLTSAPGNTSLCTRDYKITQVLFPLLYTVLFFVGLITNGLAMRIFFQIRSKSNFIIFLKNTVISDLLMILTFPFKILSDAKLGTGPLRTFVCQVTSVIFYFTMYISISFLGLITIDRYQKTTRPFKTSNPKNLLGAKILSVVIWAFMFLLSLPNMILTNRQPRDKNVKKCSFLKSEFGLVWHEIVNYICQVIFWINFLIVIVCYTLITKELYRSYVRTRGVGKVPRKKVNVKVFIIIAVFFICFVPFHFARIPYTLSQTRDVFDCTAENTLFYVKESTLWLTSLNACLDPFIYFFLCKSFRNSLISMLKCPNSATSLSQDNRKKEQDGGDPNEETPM
# assay name: rhP2Y12 receptor binding assay with [3H]ADP (HEK293T membranes)
# study conditions: 3 nM [3H]ADP, HEK293T-rhP2Y12 membranes; read-out: IC50 vs. [3H]ADP
# key: entry, value: IC50

Solved cases below.
molecule | IC50
COc1cccc(-n2nc(C#N)c(Cl)cc2=O)c1 | > 30 µM
Cn1sc(=O)c2cc(S(=O)(=O)NC3CC3)ccc21 | > 30 µM
Cn1ncc(S(=O)(=O)Cc2ccccc2)c(Br)c1=O | > 30 µM
CSc1nc(N)c2ncn([C@@H]3O[C@H](COP(=O)(O)OP(=O)(O)O)[C@@H](O)[C@H]3O)c2n1 [Compound 2-MeSADP, reference compound] | 17.2 µM
COc1ccc(C(=O)C=CSc2nncn2C)cc1 | > 30 µM

For N#Cc1nccnc1S(=O)(=O)c1cccs1 , what is its reported IC50?
> 30 µM

For Nc1ncnc2c1ncn2[C@@H]1O[C@H](COP(=O)(O)OP(=O)(O)O)[C@@H](O)[C@H]1O [ADP, Adenosine 5′-diphosphate, reference compound] , what is its reported IC50?
0.19 µM

----------
# test target: rhP2Y12 receptor (Homo sapiens, UniProt Q9H244)
# Construct: expressed in transfected cells
# assay name: rhP2Y12 receptor binding assay with [3H]ADP (HEK293T membranes)
# study conditions: IC50 vs. [3H]ADP, 3 nM [3H]ADP, HEK293T-rhP2Y12 membranes
measurement type: pIC50
The read-out pIC50 is expressed as -log10 of concentration in moles per litre.

For CCCSc1nc(N[C@@H]2C[C@H]2c2ccc(F)c(F)c2)c2nnn([C@@H]3C[C@H](OCCO)[C@@H](O)[C@H]3O)c2n1 [Ticagrelor, reference compound] , what is its reported pIC50?
5.08

----------
# test target: rhP2Y12 receptor (Homo sapiens)
# Construct: expressed in transfected cells
# assay name: rhP2Y12 receptor binding assay with [3H]-2-MeSADP (HEK293T membranes)
# study conditions: 1 nM [3H]-2-MeSADP, HEK293T-rhP2Y12 membranes; read-out: IC50 vs. [3H]-2-MeSADP
measurement type: IC50

compound | reported value
COc1cccc(-n2nc(C#N)c(Cl)cc2=O)c1 | > 30 µM
Cn1sc(=O)c2cc(S(=O)(=O)NC3CC3)ccc21 | > 30 µM
Nc1ncnc2c1ncn2[C@@H]1O[C@H](COP(=O)(O)OP(=O)(O)O)[C@@H](O)[C@H]1O [ADP, Adenosine 5′-diphosphate, reference compound] | 24.8 µM
CSc1nc(N)c2ncn([C@@H]3O[C@H](COP(=O)(O)OP(=O)(O)O)[C@@H](O)[C@H]3O)c2n1 [Compound 2-MeSADP, reference compound] | 0.12 µM
N#Cc1nccnc1S(=O)(=O)c1cccs1 | > 30 µM
COc1ccc(C(=O)C=CSc2nncn2C)cc1 | > 30 µM
Cn1ncc(S(=O)(=O)Cc2ccccc2)c(Br)c1=O | > 30 µM

For CN(C)c1ccc(C(c2cc3c(cc2O)OCO3)N2CCOCC2)cc1 (centres unmarked) , what is its reported IC50?
15.5 µM

----------
# Tested on: ADP-induced platelet aggregation
# assay name: Inhibition of ADP-induced platelet aggregation, 96-well light transmission aggregometry
# Assay type: cell-based, human
# study conditions: Homo sapiens, Platelet; 20 μM ADP, 96-well plate
Mark met only when IC50 stays strictly below 6 µM. Values equal to the cut-off are not met.

Please review the following examples before continuing.
compound | classification
CCCSc1nc(N[C@@H]2C[C@H]2c2ccc(F)c(F)c2)c2nnn([C@@H]3C[C@H](OCCO)[C@@H](O)[C@H]3O)c2n1 [Ticagrelor, reference compound] | met
Nc1ncnc2c1ncn2[C@@H]1O[C@H](COP(=O)(O)OP(=O)(O)OP(=O)(O)O)[C@@H](O)[C@H]1O [ATP, Adenosine 5′-triphosphate, reference compound] | met
COc1cccc(-n2nc(C#N)c(Cl)cc2=O)c1 | not met
N#Cc1nccnc1S(=O)(=O)c1cccs1 | not met
Cn1sc(=O)c2cc(S(=O)(=O)NC3CC3)ccc21 | not met

Just wondering, is IC50 of Cn1ncc(S(=O)(=O)Cc2ccccc2)c(Br)c1=O below 6 µM?
met

Just wondering, is IC50 of CN(C)c1ccc(C(c2cc3c(cc2O)OCO3)N2CCOCC2)cc1 (centres unmarked) below 6 µM?
not met

----------
# test target: rhP2Y13 receptor (Homo sapiens, UniProt Q9BPV8)
# Sequence (Q9BPV8 1-354): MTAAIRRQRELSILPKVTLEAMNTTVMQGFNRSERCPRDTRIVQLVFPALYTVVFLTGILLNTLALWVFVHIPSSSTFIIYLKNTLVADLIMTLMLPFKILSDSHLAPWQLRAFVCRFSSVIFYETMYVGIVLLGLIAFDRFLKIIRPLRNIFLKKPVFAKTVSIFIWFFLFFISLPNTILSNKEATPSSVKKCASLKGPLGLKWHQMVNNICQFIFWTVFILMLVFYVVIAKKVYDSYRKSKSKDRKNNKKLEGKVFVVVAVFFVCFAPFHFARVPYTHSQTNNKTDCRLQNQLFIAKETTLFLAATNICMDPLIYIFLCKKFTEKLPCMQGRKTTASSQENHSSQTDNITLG
measurement type: pIC50
The read-out pIC50 is expressed as -log10 of concentration in moles per litre.

For Cc1nc(N=Nc2cc([N+](=O)[O-])ccc2Cl)c(COP(=O)(O)O)c(C=O)c1O , what is its reported pIC50?
5.03

----------
# test target: rhP2Y12 receptor (Homo sapiens)
# Construct: expressed in transfected cells
# assay name: rhP2Y12 receptor binding assay with [3H]-2-MeSADP (HEK293T membranes)
# study conditions: IC50 vs. [3H]-2-MeSADP, 1 nM [3H]-2-MeSADP, HEK293T-rhP2Y12 membranes
measurement type: IC50 (µM)
// units = µM; emit number, no label

For CCCSc1nc(N[C@@H]2C[C@H]2c2ccc(F)c(F)c2)c2nnn([C@@H]3C[C@H](OCCO)[C@@H](O)[C@H]3O)c2n1 [Ticagrelor, reference compound] , what is its reported IC50?
0.04

----------
# test target: rhP2Y12 receptor (Homo sapiens, UniProt Q9H244)
# Construct: expressed in transfected cells
# assay name: rhP2Y12 receptor binding assay with [3H]ADP (HEK293T membranes)
# study conditions: [3H]ADP saturation binding; read-out: Kd of radioligand at rhP2Y12 (saturation, Scatchard)
measurement type: Kd (nM)
// units = nM; emit number, no label

For Nc1ncnc2c1ncn2[C@@H]1O[C@H](COP(=O)(O)OP(=O)(O)O)[C@@H](O)[C@H]1O [[^3H]ADP, reference compound] , what is its reported Kd?
9.7

Reference source: paper PMC6273072
